- PROTOCOL SUMMARY: Selectivity index, ratio of IC50 for human A549 cells to IC50 for Plasmodium falciparum
- Type: toxicity, cell-based
- CONDITION DETAILS: read-out: Ratio IC50
READOUT KIND: selectivity ratio

{"columns": ["MOLECULE", "selectivity ratio"],
 "data": [
  ["CC(NCC12CC3CC(CC(C3)C1)C2)c1cc(Br)ccc1O (stereo not drawn)", "> 1220"],
  ["Oc1ccc(Cl)cc1CNCC12CC3CC(CC(C3)C1)C2", 5290],
  ["Oc1c(F)cc(Br)cc1CNCC12CC3CC(CC(C3)C1)C2", "> 3330"],
  ["Oc1ccc(Br)cc1CNCC12CC3CC(CC(C3)C1)C2", 4780],
  ["Cc1ccc(O)c(CNCC23CC4CC(CC(C4)C2)C3)n1", "> 1560"]
]}

Record selectivity ratio per entry; entries follow.
1. Oc1cc(Cl)cc(Cl)c1CNCC12CC3CC(CC(C3)C1)C2
2. Oc1ccc(C(F)(F)F)cc1CNCC12CC3CC(CC(C3)C1)C2
3. Cc1ccc(O)c(CNCC23CC4CC(CC(C4)C2)C3)c1

1: > 6250; 2: > 500; 3: > 1160

###

- Test system: Liver microsome
- PROTOCOL SUMMARY: Clearance in human liver microsomes at 1 uM after 2 to 30 mins by LC-MS/MS analysis
- Assay type: ADME
Values of CLH greater than or equal to 80 µL/min map to label 1; values below map to label 0.

Please review the following examples before continuing.
{"columns": ["CHEMICAL STRING", "CATEGORY"],
 "data": [
  ["Oc1c(F)cc(Br)cc1CNCC12CC3CC(CC(C3)C1)C2", "label 1"],
  ["Cc1ccc(O)c(CNCC23CC4CC(CC(C4)C2)C3)c1", "label 1"],
  ["COc1ccc(CNCC23CC4CC(CC(C4)C2)C3)c(O)c1", "label 0"]
]}

Field: next compound
Is CLH for Cc1ccc(O)c(CNCC23CC4CC(CC(C4)C2)C3)n1 at or above 80 µL/min? label 0

###

I'd appreciate it if you could supply pIC50 values for the items below.
- System: Plasmodium falciparum
- PROTOCOL SUMMARY: Antiplasmodial activity against multidrug-resistant Plasmodium falciparum K1 by SYBR Green-based method
- Assay type: functional, organism-based
Answers are plain numbers, as −log10 of the molar value.

In the examples that follow, each entry is paired with its recorded pIC50.
{"columns": ["MOLECULE", "pIC50"],
 "data": [
  ["Cc1ccc(CNCC2CC2)c(O)c1", 6.28],
  ["Cc1ccc(CNC2CCCCC2)c(O)c1", 6.89]
]}

Record pIC50 per entry; entries follow.
1. CN(Cc1ccccc1O)CC12CC3CC(CC(C3)C1)C2
2. COc1ccc(CNCC23CC4CC(CC(C4)C2)C3)c(O)c1
3. Cc1ccc(O)c(CNCC23CC4CC(CC(C4)C2)C3)c1

[6.57, 8.22, 7.82]

###

- Test system: Plasmodium falciparum
- PROTOCOL SUMMARY: Antiplasmodial activity against multidrug-resistant Plasmodium falciparum K1 by SYBR Green-based method
- Assay type: functional, organism-based
READOUT KIND: IC50 (nM)
Give bare numbers, in nM.

In the examples that follow, each entry is paired with its recorded IC50.
{"columns": ["COMPOUND", "IC50 [nM]"],
 "data": [
  ["O=C(NCC12CC3CC(CC(C3)C1)C2)c1ccccc1O", 410],
  ["Oc1cccc(F)c1CNCC12CC3CC(CC(C3)C1)C2", 8],
  ["Oc1ccccc1CNCC12CC3CC(CC(C3)C1)C2", 10],
  ["Cc1ccc(O)c(CNCC23CC4CC(CC(C4)C2)C3)n1", 7.7]
]}

Turning now to a further compound:
Form field, IC50 with Plasmodium falciparum, item Cc1ccc(CNC2C3CC4CC(C3)CC2C4)c(O)c1 (configuration not stated) : 15

###

- System: Plasmodium falciparum
- PROTOCOL SUMMARY: Antiplasmodial activity against multidrug-resistant Plasmodium falciparum K1 by SYBR Green-based method
- Type: functional, organism-based
I'd appreciate it if you could supply IC50 values for the items below.

{"columns": ["CHEMICAL STRING", "IC50"],
 "data": [
  ["CCNCc1ccc(C)cc1O", "> 2000 nM"],
  ["Oc1ccc(Cl)cc1CNCC12CC3CC(CC(C3)C1)C2", "< 4 nM"],
  ["Oc1ccc(Br)cc1CNCC12CC3CC(CC(C3)C1)C2", "< 4 nM"],
  ["Cc1ccc(CNCC23CC4CC(CC(C4)C2)C3)c(O)c1", "< 4 nM"],
  ["Oc1c(F)cc(Br)cc1CNCC12CC3CC(CC(C3)C1)C2", "< 4 nM"],
  ["Oc1cc(Cl)cc(Cl)c1CNCC12CC3CC(CC(C3)C1)C2", "< 4 nM"]
]}

Turning now to a further molecule:
Given item c1ccc(CNCC23CC4CC(CC(C4)C2)C3)cc1 , the value recorded as its IC50 is > 2000 nM
